target: Human recombinant cathepsin L (Homo sapiens); experiment: Cathepsin L inhibition assay; assay type: biochemical; conditions: pH 5.5, substrate Z-Phe-Arg-AMC; read-out: Cathepsin L IC50
Sequence (P07711 114-333): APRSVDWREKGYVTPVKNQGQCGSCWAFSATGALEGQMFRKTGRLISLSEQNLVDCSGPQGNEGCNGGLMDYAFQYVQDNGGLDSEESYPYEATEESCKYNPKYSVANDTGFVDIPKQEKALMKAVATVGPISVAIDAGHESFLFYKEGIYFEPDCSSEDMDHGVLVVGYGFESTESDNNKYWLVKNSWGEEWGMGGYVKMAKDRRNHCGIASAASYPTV
recorded metric: pIC50
# pIC50 = -log10(concentration in molar units)

compound: COC(=O)/C=C/C(C)=C\C=C\C(C)=C\C=C\C=C(C)\C=C\C=C(C)\C=C\C(=O)O [Compound 1a, Bixin, reference compound]
pIC50: 4.38

Look at this compound and give its reported pIC50. CC1=C(/C=C/C(C)=C/C=C/C(C)=C/C=C/C=C(C)/C=C/C=C(\C)C(=O)O)C(C)(C)CCC1
4.12

* * *

test: in vitro; details: African green monkey
recorded metric: CC50

Look at this molecule and give its reported CC50. COC(=O)/C=C/C(C)=C\C=C\C(C)=C\C=C\C=C(C)\C=C\C=C(C)\C=C\C(=O)O [Compound 1a, Bixin, reference compound]
> 100 µM

* * *

experiment: in vitro; details: African green monkey
recorded metric: CC50 at 3 days

Value lookup for CC50 at 3 days; key = CC1=C(/C=C/C(C)=C/C=C/C(C)=C/C=C/C=C(C)/C=C/C=C(\C)C(=O)O)C(C)(C)CCC1
> 100 µM

* * *

Here we list compounds with their recorded IC50 when tested on 3CLPro (Severe acute respiratory syndrome coronavirus 2).
State the answer as a number, implicitly in µM.

Suppose we examine the compound CC(/C=C/C=C(C)/C=C/C(=O)O)=C\C=C\C=C(C)\C=C\C=C(C)\C=C\C(=O)O (stereo in doubt) [Compound 1d, norbixin] ; what IC50 value has been reported?
36.1

I would be grateful if you could share the reported IC50 for COC(=O)/C=C/C(C)=C\C=C\C(C)=C\C=C\C=C(C)\C=C\C=C(C)\C=C\C(=O)N[C@H]1C(=O)N[C@@H]2Cc3ccc(c(Cl)c3)Oc3cc4cc(c3O)Oc3ccc(cc3Cl)[C@@H](O[C@@H]3O[C@H](CO)[C@@H](O)[C@H](O)[C@H]3NC(C)=O)[C@@H]3NC(=O)[C@H](NC(=O)[C@@H]4NC(=O)[C@@H](NC2=O)c2cc(O)cc(c2)Oc2cc1ccc2O)c1ccc(O)c(c1)-c1c(O)cc(O)cc1[C@@H](C(=O)O)NC3=O [Compound 5a] .
13.9

Name the reported IC50 value associated with the compound CC(=O)NC1C(OC2c3ccc(c(Cl)c3)Oc3cc4cc(c3O)Oc3ccc(cc3Cl)CC3NC(=O)C(NC(=O)C(C)=CC=CC(C)=CC=CC=C(C)C=CC=C(C)C=CC5=C(C)CCCC5(C)C)c5ccc(O)c(c5)Oc5cc(O)cc(c5)C(NC3=O)C(=O)NC4C(=O)NC3C(=O)NC2C(=O)NC(C(=O)O)c2cc(O)cc(O)c2-c2cc3ccc2O)OC(CO)C(O)C1O (stereo not shown) [Compound 5c]
34.5

For the compound CC1=C(/C=C/C(C)=C/C=C/C(C)=C/C=C/C=C(C)/C=C/C=C(\C)C(=O)O)C(C)(C)CCC1 [Compound 1c, β-apo-8′-carotenoic acid] , what IC50 is on record?
73

* * *

tested on: SARS-CoV-2; test: microbe, parasite or virus in culture; type: cell-based; conditions: Severe acute respiratory syndrome coronavirus 2, Vero C1008, 72 h; Vero E6 cells, MOI 0.04, three days, XTT; read-out: SARS-CoV-2 CPE, EC50
Catalogue of pEC50 readings, one per entry.
pEC50 is defined as minus the log10 of a concentration measured in mol/L.

molecule: COC(=O)/C=C/C(C)=C\C=C\C(C)=C\C=C\C=C(C)\C=C\C=C(C)\C=C\C(=O)O [Compound 1a, Bixin, reference compound]
observed measurement: 4.85

Reported pEC50, molecule CC1=C(/C=C/C(C)=C/C=C/C(C)=C/C=C/C=C(C)/C=C/C=C(\C)C(=O)O)C(C)(C)CCC1 [Compound 1c, β-apo-8′-carotenoic acid] : ____
4.85

Sourced from paper PMC8619593
